Source listed as ChEMBL document CHEMBL4229456.

- method_description: Activity against horseradish peroxidase by oxalate detection based assay
pEC50: −log10 of the molar value.

| sample_smiles | pEC50 |
| --- | --- |
| O=C(O)c1cc(-c2ccco2)ccc1O | 4.74 |

---

- test_system: 2-Hydroxyacid oxidase 1 (Mus musculus) (UniProt Q9WU19)
- Sequence (Q9WU19 whole entry): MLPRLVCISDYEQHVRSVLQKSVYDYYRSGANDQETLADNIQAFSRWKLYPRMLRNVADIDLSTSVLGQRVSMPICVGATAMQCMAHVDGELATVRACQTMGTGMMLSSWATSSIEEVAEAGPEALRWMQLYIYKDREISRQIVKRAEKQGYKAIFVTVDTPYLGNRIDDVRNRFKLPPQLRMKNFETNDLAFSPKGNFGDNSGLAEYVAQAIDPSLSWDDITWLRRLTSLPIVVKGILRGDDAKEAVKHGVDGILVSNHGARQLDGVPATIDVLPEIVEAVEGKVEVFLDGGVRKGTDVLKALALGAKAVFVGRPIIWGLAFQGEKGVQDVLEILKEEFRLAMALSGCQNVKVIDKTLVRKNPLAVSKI
- method_description: Inhibition of mouse recombinant glycolate oxidase expressed in Escherichia coli at 25 uM using glycolate as substrate after 1 min by sulfonated DCIP dye-based assay relative to control
measured_attribute: inhibition (%)

| sample_smiles | measured_attribute | reported_result |
| --- | --- | --- |
| O=C(O)c1cc(-c2ccoc2)ccc1O | inhibition | 26.6 |
| O=C(O)c1ccc(-c2ccc(CO)o2)cc1O | inhibition | 85.7 |
| Nc1ccc(C(=O)O)c(O)c1 | inhibition | 14.9 |
| Cn1nccc1-c1ccc(C(=O)O)c(O)c1 | inhibition | 16.2 |
| O=C(O)c1cc2ccccc2c(/N=N/c2cc(C(F)(F)F)ccc2Cl)c1O | inhibition | 47.4 |
| Cc1ccc(/N=N/c2cc(C(=O)O)cc3ccccc23)c(S(=O)(=O)O)c1 | inhibition | 1.5 |
| O=Cc1ccc(-c2ccc(C(=O)O)c(O)c2)o1 | inhibition | 82.8 |
| O=C(O)c1ccc(-c2ccncc2)cc1O | inhibition | 22.7 |
| CC(=O)c1ccc(-c2ccc(C(=O)O)c(O)c2)s1 | inhibition | 28.1 |
| O=C(O)c1cc(-c2ccccc2COc2cccc(C(F)(F)F)c2)ccc1O | inhibition | 96.2 |
| O=C(O)c1cc([N+](=O)[O-])c(-c2ccco2)cc1O | inhibition | 5.9 |
| O=C(O)c1ccc(Cl)cc1O | inhibition | 20.8 |
| O=C(O)c1ccccc1O | inhibition | 18.5 |
